# Target Or System: T1, EGFR on 293T-EGFR cells (293T cells negative for BCMA expression) (UniProt P00533 25-1210, limits assumed)
# T1 construct: whole, on cells; negative control cells; that they carry EGFR is read from the label only
# Method Notes: FACS on 293T-EGFR cells (BCMA negative); note: test concentration or dose not given here
Metric: MFI (MFI)

>  <Binder>
NBL507-A1L1-P1R2-1A1-(1)-PME207-SEQF_A01 (VHH, purified VHH; also called lAl) VHH: EVQLVESGGGLVQPGGSLRLSCAASGFTFRSSAMSWARQAPGKGLEWVSDIYPDGRTDYADSIKGRFTMSRDNAKNTVYLLMDSLKPEDTAVYHCQVGRYVSGVYYQPRGQGTQVTVSS

>  <Reported Result>
230

$$$$
>  <Binder>
NBL507-A2L1-P1R2-1H1-(275)-PME207-SEQF_G11 (VHH, purified VHH) VHH: QVQLVESGGGLVHPGGSLRLACAASERILSFNVMGWYRQAPGQQREVVATITSVGRTYYADSVKGRFTIFKDNGKNTYLQMSSLKPEDTAVYYCKAVTVGDVDTEYWGQGTQVTVSS

>  <Reported Result>
222

$$$$
